Each record here notes measured residual activity.
Target: MAP kinase-activated protein kinase 3 (Homo sapiens) (UniProt Q16644)
Sequence (Q16644 whole entry, looked up): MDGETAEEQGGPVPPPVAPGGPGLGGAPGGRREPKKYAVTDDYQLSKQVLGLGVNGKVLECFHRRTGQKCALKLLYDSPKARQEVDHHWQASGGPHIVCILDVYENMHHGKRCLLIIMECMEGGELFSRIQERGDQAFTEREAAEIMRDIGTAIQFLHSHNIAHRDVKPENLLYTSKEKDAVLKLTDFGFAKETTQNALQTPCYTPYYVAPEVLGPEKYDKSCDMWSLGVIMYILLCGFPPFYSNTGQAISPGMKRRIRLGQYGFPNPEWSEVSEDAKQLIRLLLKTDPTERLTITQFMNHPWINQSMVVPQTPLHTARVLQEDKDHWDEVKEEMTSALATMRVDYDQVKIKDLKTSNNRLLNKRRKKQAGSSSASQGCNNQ
Settings: at 1 µM
Enter your answer as a number in %; do not include the unit.

// below: answered compounds
1. Cn1cnc2cc3c(Nc4cccc(Br)c4)ncnc3cc21 :: 107
2. O=C1NC(=O)C(c2cn(CCCn3ccnc3)c3ccccc23)=C1Nc1ccccc1 :: 126
3. c1ccc2c(-c3ccncc3)c[nH]c2c1 :: 103
4. Nc1ncnc2[nH]nc(Nc3ccc(F)cc3)c12 :: 107
5. c1ccc(-c2n[nH]cc2-c2ccnc3ccccc23)nc1 :: 109
6. O=C1Nc2ccc(Cl)cc2/C1=C/c1cc(Cl)c(O)c(Cl)c1 :: 92
7. NCCNc1ncc(C(N)=O)c(Nc2cccc(C(F)(F)F)c2)n1 :: 106
8. COc1ccc2c(c1)c(C1=C(c3c[nH]c4ccccc34)C(=O)NC1=O)cn2CCCN(C)C :: 103
9. Ic1cccc(CSc2nnc(-c3ccncc3)o2)c1 :: 111
10. CC[n+]1c(/C=C/N(C)c2ccccc2)n(-c2ccccc2)c2ccc(-c3nc4ccccc4s3)cc21 :: 100

Challenge: For C[S+]([O-])c1ccc(-c2nc(-c3ccc(F)cc3)c(-c3ccncc3)[nH]2)cc1 (stereo unspecified) , what is its reported residual activity?
Response given: 104

Reference source: ChEMBL document CHEMBL2218924
